- system name: T1, DENV-1 nonstructural protein 1 (NS1), recombinant (Dengue virus 1, strain Nauru/West …, UniProt P17763)
- T1 construct: also called DENV-1 NS1; NS1 from DENV-1; source: bought: Native Antigen Company (recombinant)
- T1 sequence (P17763 776-1127): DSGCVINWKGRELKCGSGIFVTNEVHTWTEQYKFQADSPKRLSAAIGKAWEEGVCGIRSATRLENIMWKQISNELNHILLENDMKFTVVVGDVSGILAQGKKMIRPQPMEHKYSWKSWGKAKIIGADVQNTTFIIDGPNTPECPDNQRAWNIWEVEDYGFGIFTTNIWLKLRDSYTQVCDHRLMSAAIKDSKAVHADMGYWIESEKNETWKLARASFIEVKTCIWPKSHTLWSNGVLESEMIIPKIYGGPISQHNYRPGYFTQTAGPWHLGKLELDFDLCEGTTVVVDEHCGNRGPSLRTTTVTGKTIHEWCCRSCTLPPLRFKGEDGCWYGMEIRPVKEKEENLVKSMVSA
- experiment description: SPR
- condition set: both partners purified
recorded endpoint: pKd
Scale explanation: pKd corresponds to minus log10 of a concentration expressed in moles per litre.

sdAb DD9 (VHH, source: E. coli Turner (DE3), pET22b, periplasmic, purified (Ni-Sepharose, SEC)) VHH: EVQLQASGGGLVQAGGSLRVSCAASGIAFTNYALAWYRQPPGKQREWVATVGVLGGTKYADSVKGRFAISRDNAKNTVILQMNSLKPVDTAVYFCAAVEWSNGRYYWDSWGQGTQVTVSA
7.74

Could you now look at the following binder, please?
input: Determine from records and report pKd for sdAb DD1 (VHH, source: E. coli Turner (DE3), pET22b, periplasmic, purified (Ni-Sepharose, SEC)) VHH: EVQLQASGGGLVQAGGSLRVSCAATGIAFASYAVAWYRQAPGKQREWVATVGGLGGTKYVDSVKGRFTISRDNAKNAVTLQMNSLKPEDTAVYYCAAVEWDDGHYYWDTWGQGTRVTVSA
output: 7.55
